meta.source: PubChem BioAssay AID602238

Test system: mouse liver microsomes, percent remaining, LC-MS/MS
Assay: qHTS for Activators of Human alpha-Glucosidase as a Potential Chaperone Treatment of Pompe Disease: Metabolic Stability;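 active means compound with at least 90% left after incubation with mouse liver microsomes; inactive means the rest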
Settings: at 5 µM
# output must be one of True (active), False (inactive)

The examples below pair each entry with its known result.
-- ask Please indicate how the test categorized `CCCN1CNc2c(c(=O)[nH]c(=S)n2Cc2ccc(OC)c(OC)c2)C1` .
-- reply True

-- ask Which result was noted for this molecule in the test: `CCCN1CNc2c(c(=O)[nH]c(=S)n2CCc2ccc(OC)c(OC)c2)C1`
-- reply False

Continuing:
-- ask Called result for `CCCN1CNc2c(c(=O)[nH]c(=S)n2CCc2cccc(Cl)c2Cl)C1`
-- reply True
